Measured pKi (5-hydroxytryptamine receptor 1A (Rattus norvegicus))
pKi: −log10 of the molar value.
property label: pKi

Past entries and their recorded results:
INSERT INTO measurements (given_smiles, test_value) VALUES
  ('Cc1cccc(C(=O)NCCCCNCc2cccc(-n3cccn3)n2)c1', 7.85),
  ('CCOc1cccc(C(=O)N2CCC(CNCc3cccc(-n4cccn4)n3)CC2)c1', 7.97);

[a] O=C(c1ccc(Cl)c(Cl)c1)N1CCC(CNCc2cc(-n3cccn3)ccn2)CC1
[b] O=C(N1CCC(CNCc2cccc(-n3cccn3)n2)CC1)C12C[C@H]3C[C@@H](C1)C[C@@H](C2)C3
[c] O=C(c1ccc(Cl)c(Cl)c1)N1CCC(CNCc2cccc(-n3cccc3)n2)CC1
[d] O=C(c1cccc(Cl)c1)N1CCC(CNCc2cccc(-n3cccn3)n2)CC1
QUERY: Ranking field: pKi; order: falling. The reply should contain the labels ordered as requested.
RESULT: d, c, b, a

---

pKi: −log10 of the molar value.
// each record: one item and its pKi for 5-hydroxytryptamine receptor 1A (Rattus norvegicus)
property label: pKi

INSERT INTO measurements (molecule, test_value) VALUES
  ('COC(=O)c1ccc(C(=O)N2CCC(CNCc3cccc(-n4cccn4)n3)CC2)cc1Cl', 6.78),
  ('O=C(c1ccc(Cl)c(Cl)c1)N1CCC(CNCc2cccc(-n3cccc3)c2)CC1', 6.53),
  ('N#Cc1cccc(CNCC2CCN(C(=O)c3ccc(Cl)c(Cl)c3)CC2)n1', 7.30);

[P] NC(=O)c1cccc(CNCC2CCN(C(=O)c3ccc(Cl)c(Cl)c3)CC2)n1
[Q] O=C(c1ccc(Cl)c(Cl)c1)N1CCC(CNCCc2cccc(-n3cccn3)n2)CC1
[R] N#Cc1cccc(C(=O)N2CCC(CNCc3cccc(-n4cccn4)n3)CC2)c1
[S] Fc1ccc(C(CCCNCc2cccc(-n3cccn3)n2)c2ccc(F)cc2)cc1
QUERY: Parameters: sort_field (pKi), sort_dir (desc). Write the labels, ordered according to the request.
RESULT: Q, R, P, S

[A] O=C(c1ccc(Cl)c(Cl)c1)N1CCCC(CNCc2cccc(-n3cccn3)n2)C1 (stereo unspecified)
[B] Cn1c(=O)cnn(CCCCNCc2cccc(-n3cccn3)n2)c1=O
[C] C[S+]([O-])c1cccc(CNCC2CCN(C(=O)c3ccc(Cl)c(Cl)c3)CC2)n1 (stereo unspecified)
QUERY: // ascending sort on recorded pKi Reply: labels, ordered per the request.
RESULT: A, B, C

[I] O=C(c1cccc(Cl)c1Cl)N1CCC(CNCc2cccc(-n3cccn3)n2)CC1
[II] CSc1cccc(CNCC2CCN(C(=O)c3ccc(Cl)c(Cl)c3)CC2)n1
QUERY: # return whichever of I and II has the smaller pKi Field: selected label. Fill in the label of the entry you choose.
RESULT: I
(I: 7.00, II: 8.59)

---

- assayed system: 5-hydroxytryptamine receptor 1A (Rattus norvegicus, UniProt P19327)
- Sequence (P19327 whole entry): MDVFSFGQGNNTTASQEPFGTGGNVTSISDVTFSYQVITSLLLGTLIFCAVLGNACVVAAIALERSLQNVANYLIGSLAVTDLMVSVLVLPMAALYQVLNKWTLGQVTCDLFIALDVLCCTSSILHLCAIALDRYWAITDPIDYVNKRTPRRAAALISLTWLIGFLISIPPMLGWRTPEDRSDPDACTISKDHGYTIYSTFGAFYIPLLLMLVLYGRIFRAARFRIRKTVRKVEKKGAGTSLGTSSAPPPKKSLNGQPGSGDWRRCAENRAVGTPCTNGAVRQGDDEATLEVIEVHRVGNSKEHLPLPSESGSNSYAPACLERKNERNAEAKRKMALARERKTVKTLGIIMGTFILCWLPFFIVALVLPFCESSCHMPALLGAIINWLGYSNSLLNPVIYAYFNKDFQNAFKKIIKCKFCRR
property label: Ki (nM)

INSERT INTO measurements (given_smiles, property_label, measurement_units, test_value) VALUES
  ('CNc1cccc(CNCC2CCN(C(=O)c3ccc(Cl)c(Cl)c3)CC2)n1', 'Ki', 'nM', 1.74);

[P] O=C(c1ccc(Cl)c(Cl)c1)N1CCC(CNCc2cccc(-c3ccco3)n2)CC1
[Q] O=C(c1ccc(Cl)c(Cl)c1)N1CCC(CNCCc2ccccn2)CC1
QUERY: Lower value for measured Ki? Options: P , Q Lab note: record the label of whichever item you select.
RESULT: P
(P: 0.724 nM, Q: 1.2 nM)

---

Measurement record for 5-hydroxytryptamine receptor 1A (Rattus norvegicus, UniProt P19327); quantity recorded: Ki.
property label: Ki (nM)

INSERT INTO assay_data (given_smiles, assayed_system, test_value) VALUES
  ('COc1cccc(CNCC2CCN(C(=O)c3ccc(Cl)c(Cl)c3)CC2)n1', '5-hydroxytryptamine receptor 1A (Rattus norvegicus, UniProt P19327)', 3.47),
  ('O=C(c1ccc(Cl)c(Cl)c1)N1CCC(CNCc2cccnc2)CC1', '5-hydroxytryptamine receptor 1A (Rattus norvegicus, UniProt P19327)', 417),
  ('COc1ccc2[nH]cc(CCNCc3cccc(-n4cccn4)n3)c2c1', '5-hydroxytryptamine receptor 1A (Rattus norvegicus, UniProt P19327)', 661);

[1] CC(C)c1cccc(CNCC2CCN(C(=O)c3ccc(Cl)c(Cl)c3)CC2)n1
[2] O=C(c1ccc(Cl)c(Cl)c1)N1CCC(CNCc2cccc(N3CCCC3)n2)CC1
QUERY: Hi, I'm comparing 1 with 2 and wondering which one has the bigger number for Ki. Any idea? // caller expects the label of the chosen entry
RESULT: 2
(2: 1.58 nM, 1: 0.631 nM)

Data provenance: ChEMBL document CHEMBL1131424
